B1: library; a variant is named by its letters at N, in order (parent)
chain: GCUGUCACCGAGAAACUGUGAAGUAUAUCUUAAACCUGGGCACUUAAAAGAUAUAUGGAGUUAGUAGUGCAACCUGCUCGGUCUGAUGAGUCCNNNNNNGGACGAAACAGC

- Variants of: B1
- Assay Text: normalized RNA/DNA level without ligand (relative to sTRSVctl = 100) (log10 (% of sTRSVctl)); HEK293T; ligand: cyclic di-GMP (c-di-GMP-II aptamer); higher = less ribozyme self-cleavage, higher mRNA level
- Condition Notes: reporter: mCherry (pCS4076), ligand present: no
Measured Parameter: normalized RNA/DNA level without ligand (log10)
Would you mind answering with just the numeric figure?

Exercise: Return value of normalized RNA/DNA level without ligand (log10) for input GUACAC , no commentary.
Solution: 1.67

Exercise: Provide one value: measured normalized RNA/DNA level without ligand (log10) of AUUGCG
Solution: 1.71

Exercise: Entry CCGAUC needs its normalized RNA/DNA level without ligand (log10) filled in; supply it.
Solution: 1.55
